# TGT: UniProtKB P32246
# PROCEDURE SUMMARY: Allosteric modulation at human CCR1 transfected in COS7 cells coexpressing chimeric Gqi4myr assessed as {3H]IP3 turnover by liquid scintillation counting analysis
QUANTITY: pEC50
In simple prose, pEC50 is minus the logarithm base ten of a concentration in moles per litre.

Recall the recorded pEC50 for Cc1ccnc2c1ccc1cccnc12 with UniProtKB P32246 and state it.
6.00

Recall the recorded pEC50 for Cc1cccc(-c2cccc(C)n2)n1 with UniProtKB P32246 and state it.
4.92

Recall the recorded pEC50 for OCc1ccc2ccc3ccc(CO)nc3c2n1 with UniProtKB P32246 and state it.
5.00

Recall the recorded pEC50 for O=Cc1ccc2ccc3ccc(C=O)nc3c2n1 with UniProtKB P32246 and state it.
4.89

Recall the recorded pEC50 for Cc1ccnc2c1ccc1c(C)ccnc12 with UniProtKB P32246 and state it.
6.07

Others:
Recall the recorded pEC50 for Cc1ccc(-c2ccc(C)cn2)nc1 with UniProtKB P32246 and state it.
4.77

Recall the recorded pEC50 for O=Cc1ccnc2c1ccc1c(C=O)ccnc12 with UniProtKB P32246 and state it.
5.30

Recall the recorded pEC50 for Cc1ccnc(-c2cc(C)ccn2)c1 with UniProtKB P32246 and state it.
5.44

Recall the recorded pEC50 for Cc1cc2cccnc2c2ncccc12 with UniProtKB P32246 and state it.
5.74

Recall the recorded pEC50 for COc1ccnc(-c2cc(OC)ccn2)c1 with UniProtKB P32246 and state it.
5.00

Recall the recorded pEC50 for Cc1cnc2c(ccc3c(C)c(C)cnc32)c1C with UniProtKB P32246 and state it.
5.82

Recall the recorded pEC50 for Clc1cc2cccnc2c2ncccc12 with UniProtKB P32246 and state it.
5.70

Recall the recorded pEC50 for Clc1cc(-c2ccccn2)nc(-c2ccccn2)c1 with UniProtKB P32246 and state it.
5.92

Recall the recorded pEC50 for Cc1ccc2ccc3ccc(C)nc3c2n1 with UniProtKB P32246 and state it.
5.80

====

# TGT: C-C chemokine receptor type 1 (Homo sapiens)
# Sequence (P32246 whole entry): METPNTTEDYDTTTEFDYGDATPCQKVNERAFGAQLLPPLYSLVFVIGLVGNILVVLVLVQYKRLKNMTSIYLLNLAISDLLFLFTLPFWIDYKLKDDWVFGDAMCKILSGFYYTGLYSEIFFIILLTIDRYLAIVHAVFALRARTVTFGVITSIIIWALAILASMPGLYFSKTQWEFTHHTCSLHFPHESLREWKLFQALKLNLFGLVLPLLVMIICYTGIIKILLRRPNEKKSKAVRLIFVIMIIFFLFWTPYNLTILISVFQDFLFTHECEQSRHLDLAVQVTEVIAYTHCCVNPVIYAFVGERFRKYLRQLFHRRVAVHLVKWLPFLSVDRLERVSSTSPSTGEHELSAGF
# PROCEDURE SUMMARY: biochemical
# Type: cell-based, COS-7
# APPLIED CONDITIONS: read-out: IC50
# Description: Displacement of [125I]-CCL3 from human CCR1 transfected in COS7 cells coexpressing chimeric Gqi4myr after 3 hrs
pIC50: −log10 of the molar value.
In this section we review reported pIC50 values for a set of compounds.

Below, each entry is followed by its recorded pIC50 result.
Any idea what its pIC50 is? The compound is Cc1ccc2ccc3ccc(C)nc3c2n1 [NEOCUPROINE]
< 3.00

Any idea what its pIC50 is? The compound is O=Cc1ccnc2c1ccc1c(C=O)ccnc12
< 3.00

Please turn your attention to the following entry.
Any idea what its pIC50 is? The compound is BrCc1ccc2ccc3ccc(CBr)nc3c2n1
< 3.00

====

# TGT: C-C chemokine receptor type 8 (Homo sapiens, UniProt P51685)
# Sequence (P51685 whole entry): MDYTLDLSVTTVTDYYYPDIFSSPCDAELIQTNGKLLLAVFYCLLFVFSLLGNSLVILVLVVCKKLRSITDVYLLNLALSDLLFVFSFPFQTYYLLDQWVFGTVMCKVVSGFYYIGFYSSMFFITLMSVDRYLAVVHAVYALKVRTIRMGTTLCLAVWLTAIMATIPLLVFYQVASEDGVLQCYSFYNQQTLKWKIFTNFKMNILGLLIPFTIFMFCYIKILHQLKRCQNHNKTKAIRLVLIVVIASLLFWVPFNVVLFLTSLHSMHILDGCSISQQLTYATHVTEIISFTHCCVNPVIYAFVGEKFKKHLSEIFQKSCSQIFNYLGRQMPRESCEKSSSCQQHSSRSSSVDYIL
# PROCEDURE SUMMARY: Allosteric modulation at human CCR8 transfected in COS7 cells assessed as [3H]IP3 turnover by liquid scintillation counting analysis
QUANTITY: pEC50
In simple prose, pEC50 is minus the logarithm base ten of a concentration in moles per litre.

Below, each entry is followed by its recorded pEC50 result.
Any idea what its pEC50 is? The compound is c1ccc(-c2cccc(-c3ccccn3)n2)nc1 [TERPYRIDINE]
5.31

Any idea what its pEC50 is? The compound is Cc1cnc2c(ccc3cccnc32)c1
6.17

Any idea what its pEC50 is? The compound is Cc1cnc2c(ccc3c(C)c(C)cnc32)c1C
6.32

Please turn your attention to the following entry.
Any idea what its pEC50 is? The compound is O=Cc1ccnc2c1ccc1c(C=O)ccnc12
4.82

====

In this section we review reported pEC50 values for a set of compounds.
# TGT: C-C chemokine receptor type 8 (Homo sapiens, UniProt P51685)
# PROCEDURE SUMMARY: Allosteric modulation at human CCR8 transfected in COS7 cells assessed as [3H]IP3 turnover by liquid scintillation counting analysis
In simple prose, pEC50 is minus the logarithm base ten of a concentration in moles per litre.

Below, each entry is followed by its recorded pEC50 result.
Any idea what its pEC50 is? The compound is Oc1ccnc2c1ccc1c(O)ccnc12
4.07

Any idea what its pEC50 is? The compound is c1cnc2c(c1)ccc1cccnc12 [PHENANTHROLINE]
5.41

Any idea what its pEC50 is? The compound is Cc1ccnc(-c2cc(C)ccn2)c1
5.48

Others:
Any idea what its pEC50 is? The compound is Cc1cnc2c(ccc3cc(C)cnc32)c1
5.15

Any idea what its pEC50 is? The compound is Cc1cccc(-c2cccc(C)n2)n1
5.32
